Kindly state MIC range, single drug for each of the entries shown.
system: Beta-haemolytic streptococci (n = 20) clinical isolates from otitis externa cases in dogs; test: MIC/MBC and checkerboard, canine otitis externa isolates; assay type: cell-based, beta-haemolytic Streptococcus spp.; settings: canine otitis externa

Worked examples, 4 compounds total:
Compound	MIC range, single drug
CN[C@@H]1[C@@H](O[C@H]2O[C@H](CO)[C@@H](N)[C@H](O)[C@H]2O)OC2C[C@@H](N)[C@@H](O[C@H]3[C@H](O)[C@@H](O)[C@H](N)C[C@@H]3N)OC2[C@@H]1O (some centres unmarked)	4 to 128 µg/mL
O=C(O)CN(CCN(CC(=O)O)CC(=O)O)CC(=O)O	190 to 750 µg/mL
N=C(N/N=C/c1ccc(Cl)cc1)N/N=C/c1ccc(Cl)cc1	4 to 16 µg/mL
CC1(C)S[C@@H]2[C@H](NC(=O)[C@H](N)c3ccccc3)C(=O)N2[C@H]1C(=O)O	0.06 to 0.5 µg/mL

# MIC range, single drug lookup, item CNC(C)C1CCC(N)C(OC2C(N)CC(N)C(OC3OCC(C)(O)C(NC)C3O)C2O)O1 (centres unmarked)
8 to 16 µg/mL
